system: MDA-MB-468 breast; assay: NCI-60 one-dose screen, 48 h (100 = growth as untreated, 0 = no growth, -100 = all killed); conditions: 10 µM unless noted
Compounds without any hit were thinned out: in the full panel of roughly 83,000, 20% have a hit.
observation-type: growth (%)
I only need the number, in %, no unit after it.

chem_smiles=Fc1ccc(-c2cc(C(Cl)Cl)no2)cc1 subject_of_test="MDA-MB-468 breast" numeric_result=104
chem_smiles=COc1cc(C(=O)N2CCN(c3ccccc3)CC2)c2ccccc2n1 subject_of_test="MDA-MB-468 breast" numeric_result=5.08
chem_smiles=C#Cc1cccc(Nc2ncnc3ccc(-c4cnc(Cl)c(NS(C)(=O)=O)c4)cc23)c1 subject_of_test="MDA-MB-468 breast" numeric_result=-78.8

Looking up CCN(CCCOc1ccc2c(Nc3cc(CC(=O)Nc4cccc(F)c4)[nH]n3)ncnc2c1)CCOP(=O)(O)O , I found its growth recorded as 67.6

Looking up O=c1ccc(N=Nc2ccccc2)ccc1Cl , I found its growth recorded as -51.2

Looking up O=C(CI)OCC(COC(=O)CI)OC(=O)CI , I found its growth recorded as 51.6

###

tested on: MDA-MB-468 breast; assay: NCI-60 one-dose screen, 48 h (100 = growth as untreated, 0 = no growth, -100 = all killed); settings: 10 µM unless noted
Compounds without any hit were thinned out: in the full panel of roughly 83,000, 20% have a hit.
observation-type: growth (%)
I only need the number, in %, no unit after it.

Example entries and their recorded answers appear below.
molecule=CC1=CCc2ccccc21 unit_abbreviation=% numeric_result=115
molecule=CCn1nc(C#Cc2c(C)ccc3c(Nc4ccc(Cl)cc4)nccc23)c2c(N)ncnc21 unit_abbreviation=% numeric_result=27.1
molecule=Cc1ccc(S(=O)(=O)NCCNc2nc(Nc3ccc(N4CCN(C)CC4)cc3)nc3ccsc23)cc1 unit_abbreviation=% numeric_result=94.1
molecule=COc1ccc2nc3ccccc3c(NCc3ccc(C)cc3)c2c1 unit_abbreviation=% numeric_result=-18.6
molecule=Clc1ccc(Sc2cnc(-c3ccccc3)o2)cc1 unit_abbreviation=% numeric_result=111
molecule="CC(C)=CCNc1ncnc2c1ncn2C1OC(COP(=O)(O)O)C(O)C1O (stereo not given)" unit_abbreviation=% numeric_result=23.3
molecule=Cn1cc([C@@H]2Nc3ccc4[nH]ncc4c3[C@H]3[C@H]4CCC(C4)[C@H]32)c(C(F)(F)F)n1 unit_abbreviation=% numeric_result=53.4
molecule=S=C(SSC(=S)N(c1ccccc1)c1ccccc1)N(c1ccccc1)c1ccccc1 unit_abbreviation=% numeric_result=107
molecule=O=C(CBr)c1ccc(OC(=O)c2ccccc2)cc1 unit_abbreviation=% numeric_result=116

# evaluate next
Form: item CCc1cc2c(cc1N1CCC(N3CCOCC3)CC1)C(C)(C)c1[nH]c3cc(C#N)ccc3c1C2=O ; test system MDA-MB-468 breast; growth: -38.2

###

system: MDA-MB-468 breast; test: NCI-60 one-dose screen, 48 h; details: 10 µM unless noted
About 83,000 compounds went through this panel and 20% of them were active in at least one assay; those are over-represented in the sample as a whole. Active and inactive are the calls of the source. How the source made its calls: active means growth percent below 10; inactive means the rest.
Use one of these outcomes when replying: active, inactive

Please review the following examples before continuing.
compound=CCc1ccc(NC(=O)N[C@@H](Cc2cccc(F)c2)C(=O)N[C@@H]2C(=O)N3CCC[C@H]3C(=O)N3CCCC[C@H]3C(=O)N[C@@H](CO)C(=O)N3C[C@H](C)C[C@H]3C(=O)O[C@H]2C)c(F)c1 class_name=active
compound=CSc1nc(=O)n(Cc2ccc(Cl)cc2)c(=O)[nH]1 class_name=inactive
compound=N#Cc1c(N2CCNCC2)nc2sc3cc(Cl)c(Cl)cc3n2c1=N class_name=inactive

Any idea what this test logged for O=C(CCl)Oc1ccc(-c2ccccc2)c(Br)c1 ? inactive

Any idea what this test logged for Nc1ncncc1-c1ccc(F)cc1 ? inactive

###

tested on: MDA-MB-468 breast; experiment: NCI-60 one-dose screen, 48 h (100 = growth as untreated, 0 = no growth, -100 = all killed); settings: 10 µM unless noted
This is part of a sample that, as a whole, favours compounds with a hit. Of some 83,000 tested, about 20% had one in any assay. Calls of active or inactive are those of the source. Rule for the calls: active = growth percent below 10; inactive = the rest.
observation-type: growth

Example entries and their recorded answers appear below.
compound=COc1cc(-c2nc3ccc(C)cc3[nH]2)ccc1OCC(=O)N=Nc1c(O)[nH]c2ccccc12 result="-85.9% (active)"
compound=Clc1cc2c(nn1)Nc1ccccc1S2 result="96.9% (inactive)"
compound=CC(C)(O)CC(=O)NCCn1ccc2ncnc(Nc3ccc(Oc4cccc(C(F)(F)F)c4)c(Cl)c3)c21 result="-43.8% (active)"
compound=CC(C)c1cc(C(=O)O)c(O)c(C(C)C)c1.CC(C)c1cc(C(=O)O)c(O)c(C(C)C)c1.[Mn] result="120% (inactive)"
compound=C[C@@H](Oc1cc(C(=O)Nc2ccc(C(=O)N3CCN(C)CC3)cc2)nnc1N)c1c(Cl)ccc(F)c1Cl result="62.3% (inactive)"

# evaluate next
Looking up O=C(O)c1ccc(-n2cc(CNc3ccc(Cl)cc3)c(-c3ccc(F)cc3)n2)cc1 , I found its growth recorded as 106% (inactive)

###

tested on: MDA-MB-468 breast; assay: NCI-60 one-dose screen, 48 h (100 = growth as untreated, 0 = no growth, -100 = all killed); conditions: 10 µM unless noted
The panel holds about 83,000 compounds, 20% with a hit somewhere; the sample as a whole holds those more often. Active and inactive are the calls of the source. Rule for the calls: active = growth percent below 10; inactive = the rest.
Below, each entry is listed alongside its reported growth.

Example entries and their recorded answers appear below.
compound=Cc1ccc(-n2nnc(C3=NCCc4c3[nH]c3ccc(Cl)cc43)c2C)cc1 subject_of_test="MDA-MB-468 breast" result="71.5% (inactive)"
compound="COc1ccc(C2CC(n3ccnc3)c3cc(OC)c(OC)c(OC)c32)cc1O (configuration not stated)" subject_of_test="MDA-MB-468 breast" result="78.6% (inactive)"
compound=C#Cc1c2c(c(OC)c3c1OCO3)[C@H]([C@H]1OC(=O)c3c1ccc(OC)c3OC)N(C)CC2 subject_of_test="MDA-MB-468 breast" result="79.9% (inactive)"

Form: item C[C@@H](C[C@H](CCOCc1cccnc1)c1ccccc1)c1cc2ccccc2o1 ; test system MDA-MB-468 breast; growth: 99.5% (inactive)

Form: item CC(C)CCC[C@@H](C)[C@H]1CC[C@H]2[C@@H]3CC=C4C[C@@H](C(C(=O)O)C(=O)O)CC[C@]4(C)[C@H]3CC[C@]12C ; test system MDA-MB-468 breast; growth: -32% (active)

Form: item COc1ccc(NS(=O)(=O)N2CCCCC2)cc1 ; test system MDA-MB-468 breast; growth: 105% (inactive)

Form: item C[C@H]1[C@H](C)CC[C@]2(COC(=O)CCC(=O)O)CC[C@]3(C)C(=CC[C@@H]4[C@@]5(C)CCCNC(C)(C)[C@@H]5CC[C@]43C)[C@H]12 ; test system MDA-MB-468 breast; growth: 69% [100 µM] (inactive)

###

tested on: MDA-MB-468 breast; assay: NCI-60 one-dose screen, 48 h (100 = growth as untreated, 0 = no growth, -100 = all killed); conditions: 10 µM unless noted
This is part of a sample that, as a whole, favours compounds with a hit. Of some 83,000 tested, about 20% had one in any assay. Active and inactive are the calls of the source. How the source made its calls: active means growth percent below 10; inactive means the rest.
Below, each entry is listed alongside its reported growth.

molecule=Cc1ccc(S(=O)(=O)OCCN(CCOS(=O)(=O)c2ccc(C)cc2)c2c[nH]c(=O)[nH]c2=O)cc1 result="98.5% (inactive)"
molecule=Oc1cccc2ccc(N/N=C/c3cc(CN4CCOCC4)c(O)c4ncccc34)nc12 result="-24.6% (active)"
molecule=CCN(CC)CCCOc1cccc2c1C(=O)c1cccc(OCCCN(CC)CC)c1C2=O result="35.5% (inactive)"
molecule=CCN(CC)C(=O)C[N+](C)(C)CCOC(c1ccccc1)c1ccccc1 result="109% (inactive)"
molecule=CC/C(=C\c1ccc(OC)cc1)C(=O)c1ccc(OC)cc1 result="79.2% (inactive)"
molecule=CN1Cn2c(ccc2C(F)(F)F)C(=O)CS1(=O)=O result="115% (inactive)"
molecule=Nc1[nH]nc(Nc2ccccc2)c1-c1nc2ccccc2s1 result="17.5% (inactive)"
molecule="Nc1nc2ccc(CNc3ccc(C(=O)NC(CC(=O)O)C(=O)O)cc3)cc2c(=O)[nH]1 (centres undefined)" result="81.6% (inactive)"
molecule=O=C(CSc1nnc(-c2ccc(Cl)cc2)o1)Nc1ccc(C(=O)/C=C/c2ccccc2)cc1 result="98.7% (inactive)"
molecule=Cn1cc(-c2cc(N)n3nc(-c4cn(C)c5ccccc45)cc3n2)c2ccccc21 result="75% (inactive)"

Looking up CN(C1c2ccccc2Oc2ccccc21)S(=O)(=O)c1cc(Cl)ccc1Cl , I found its growth recorded as 18.9% (inactive)

Looking up O=S(=O)(NCCCNc1nccc(-c2c(-c3cccc(O)c3)nc3occn23)n1)c1ccc(Br)cc1 , I found its growth recorded as 96.3% (inactive)
